Molecular target: T1, EsCas13d, nuclease-dead (Eubacterium siraeum, UniProt B0MS50, R295A;H300A;R849A;H854A)
T1 sequence: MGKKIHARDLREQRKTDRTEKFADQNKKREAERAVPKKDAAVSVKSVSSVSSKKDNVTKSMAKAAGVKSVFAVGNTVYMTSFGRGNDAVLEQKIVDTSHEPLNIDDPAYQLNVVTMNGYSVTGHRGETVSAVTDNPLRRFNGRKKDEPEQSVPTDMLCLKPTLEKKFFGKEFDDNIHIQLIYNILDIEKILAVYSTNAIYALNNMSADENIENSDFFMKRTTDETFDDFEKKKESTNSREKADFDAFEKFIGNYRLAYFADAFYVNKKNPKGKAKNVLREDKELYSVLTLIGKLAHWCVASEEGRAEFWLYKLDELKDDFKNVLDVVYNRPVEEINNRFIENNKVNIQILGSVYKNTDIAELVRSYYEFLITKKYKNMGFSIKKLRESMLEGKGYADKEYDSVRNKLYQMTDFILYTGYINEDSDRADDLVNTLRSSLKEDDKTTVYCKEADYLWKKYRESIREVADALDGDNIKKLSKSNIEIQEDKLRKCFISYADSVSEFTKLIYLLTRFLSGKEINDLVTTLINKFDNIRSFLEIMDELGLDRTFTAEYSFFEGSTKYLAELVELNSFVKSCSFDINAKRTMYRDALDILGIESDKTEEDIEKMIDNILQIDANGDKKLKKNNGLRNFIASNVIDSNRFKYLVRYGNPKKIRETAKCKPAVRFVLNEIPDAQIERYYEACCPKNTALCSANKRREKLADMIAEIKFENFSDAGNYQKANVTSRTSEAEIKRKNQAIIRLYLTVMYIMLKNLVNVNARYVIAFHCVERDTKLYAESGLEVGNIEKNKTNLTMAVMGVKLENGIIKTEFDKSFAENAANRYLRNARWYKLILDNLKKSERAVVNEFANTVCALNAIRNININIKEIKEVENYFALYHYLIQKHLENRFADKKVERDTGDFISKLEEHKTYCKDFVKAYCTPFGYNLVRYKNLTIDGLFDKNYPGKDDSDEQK
Assay: crRNA (strand 1, pre-loaded); Mg2+; 40 mM Tris-HCl pH 7.5, 150 mM NaCl, 6 mM MgCl2, 1 mM DTT, 0.1% Tween-20, 0.2 mg/ml BSA; 25 C; 10 min per concentration, then washed
Conditions: tags: His6-TwinStrep-SUMO cleaved; N-terminal SNAP kept (SNAP-Surface 488); label: 3' end held by stalled T7 RNA polymerase
pKd: −log10 of the molar value.
Documented pKd across a set of binders

| Binder | pKd |
| --- | --- |
| target 1 C4A,A20U (mixed) RNA 1: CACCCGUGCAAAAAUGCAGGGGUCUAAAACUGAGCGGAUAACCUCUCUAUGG RNA 2: GGGAAUGGAUCCACAUCUACGAAUUCGUACCUUAGAGAGGUUAUCCGAUCACCGAGAUCGGAAGAGCACACGU | 7.68 |
| target 1 insU 3' of 5,insC 3' of 3 (mixed) RNA 1: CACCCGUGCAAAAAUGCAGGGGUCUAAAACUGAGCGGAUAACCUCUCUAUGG RNA 2: GGGAAUGGAUCCACAUCUACGAAUUCGUACCAUAGAGAGGUUAUCCGUCUCCACCGAGAUCGGAAGAGCACACGU | 7.42 |
| target 1 G5C,G17C (mixed) RNA 1: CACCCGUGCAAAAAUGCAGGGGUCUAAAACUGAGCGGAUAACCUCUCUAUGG RNA 2: GGGAAUGGAUCCACAUCUACGAAUUCGUACCAUACAGAGGUUAUCCCCUCACCGAGAUCGGAAGAGCACACGU | 7.32 |
| target 3 C1A,U2G (mixed) RNA 1: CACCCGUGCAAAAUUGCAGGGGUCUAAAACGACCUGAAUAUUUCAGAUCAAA RNA 2: GGGAAUGGAUCCACAUCUACGAAUUCGUUUUUGAUCUGAAAUAUUCAGGGAUGCAGAUCGGAAGAGCACACGU | 7.13 |
| target 1 complement block 3-9 (mixed) RNA 1: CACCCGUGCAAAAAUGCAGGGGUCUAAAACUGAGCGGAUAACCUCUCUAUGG RNA 2: GGGAAUGGAUCCACAUCUACGAAUUCGUACCAUAGAGAGGUUUAGGCGACACCGAGAUCGGAAGAGCACACGU | 8.06 |
| target 1 insC 3' of 20,insG 3' of 16 (mixed) RNA 1: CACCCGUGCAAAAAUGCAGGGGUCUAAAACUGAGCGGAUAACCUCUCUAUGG RNA 2: GGGAAUGGAUCCACAUCUACGAAUUCGUACCACUAGAGGAGGUUAUCCGCUCACCGAGAUCGGAAGAGCACACGU | 7.93 |
| target 2 MT 5'PFS CAU 3'PFS AUC (mixed) RNA 1: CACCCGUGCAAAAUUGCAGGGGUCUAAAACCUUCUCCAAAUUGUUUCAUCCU RNA 2: GGGAAUGGAUCCACAUCUACGAAUUCCAUAGGAUGAAACAAUUUGGAGAAGAUCAGAUCGGAAGAGCACACGU | 8.48 |
| target 1 MT 5'PFS GUA 3'PFS GAC (mixed) RNA 1: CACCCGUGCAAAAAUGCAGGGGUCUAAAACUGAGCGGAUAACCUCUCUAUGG RNA 2: GGGAAUGGAUCCACAUCUACGAAUUCGUACCAUAGAGAGGUUAUCCGCUCAGACAGAUCGGAAGAGCACACGU | 7.84 |

The values you see were collected from paper PMC10786891.
